molecular target: UniProt:Q9H0K1; assay: SIK2 Enzymatic Assay Version 2 (High ATP); format: biochemical; details: 3 mM ATP and 200 μM HDAC5tide final, ADP-Glo Max luminescence
Cut-off 10 nM on IC50: below means True, at or above means False.

| compound | target entity | label value |
| --- | --- | --- |
| Cc1cnc(Nc2cc3cc(-c4c(OC[C@H]5CCN5C[C@H](C)O)cnn4C)ccn3n2)cn1 | UniProt:Q9H0K1 | True |
| CN1CCC[C@@H]1COc1cnn(C)c1-c1ccn2nc(Nc3ccc(C4CC4)nn3)cc2c1 | UniProt:Q9H0K1 | False |
| Cn1ncc(OC[C@H]2CNCCO2)c1-c1ccn2nc(NC(=O)C3CC3)cc2c1 | UniProt:Q9H0K1 | False |
| COC1(COc2cnn(C(F)F)c2-c2ccn3nc(Nc4cc(C)nc(C)n4)cc3c2)CCNC1 (racemic) | UniProt:Q9H0K1 | False |
| COc1cnc(Nc2cc3cc(-c4c(OC[C@H]5CCN5C)cnn4C)ccn3n2)cn1 | UniProt:Q9H0K1 | True |
| Cc1onc(OC[C@@](C)(N)c2ccccc2)c1-c1ccn2nc(NC(=O)C3CC3)cc2c1 | UniProt:Q9H0K1 | False |

====

target: SIK2 (Homo sapiens (Human), UniProt Q9H0K1); assay: SIK2 Enzymatic Assay Version 2 (High ATP); assay type: biochemical; details: 3 mM ATP and 200 μM HDAC5tide final, ADP-Glo Max luminescence
Sequence (Q9H0K1 whole entry, species assumed): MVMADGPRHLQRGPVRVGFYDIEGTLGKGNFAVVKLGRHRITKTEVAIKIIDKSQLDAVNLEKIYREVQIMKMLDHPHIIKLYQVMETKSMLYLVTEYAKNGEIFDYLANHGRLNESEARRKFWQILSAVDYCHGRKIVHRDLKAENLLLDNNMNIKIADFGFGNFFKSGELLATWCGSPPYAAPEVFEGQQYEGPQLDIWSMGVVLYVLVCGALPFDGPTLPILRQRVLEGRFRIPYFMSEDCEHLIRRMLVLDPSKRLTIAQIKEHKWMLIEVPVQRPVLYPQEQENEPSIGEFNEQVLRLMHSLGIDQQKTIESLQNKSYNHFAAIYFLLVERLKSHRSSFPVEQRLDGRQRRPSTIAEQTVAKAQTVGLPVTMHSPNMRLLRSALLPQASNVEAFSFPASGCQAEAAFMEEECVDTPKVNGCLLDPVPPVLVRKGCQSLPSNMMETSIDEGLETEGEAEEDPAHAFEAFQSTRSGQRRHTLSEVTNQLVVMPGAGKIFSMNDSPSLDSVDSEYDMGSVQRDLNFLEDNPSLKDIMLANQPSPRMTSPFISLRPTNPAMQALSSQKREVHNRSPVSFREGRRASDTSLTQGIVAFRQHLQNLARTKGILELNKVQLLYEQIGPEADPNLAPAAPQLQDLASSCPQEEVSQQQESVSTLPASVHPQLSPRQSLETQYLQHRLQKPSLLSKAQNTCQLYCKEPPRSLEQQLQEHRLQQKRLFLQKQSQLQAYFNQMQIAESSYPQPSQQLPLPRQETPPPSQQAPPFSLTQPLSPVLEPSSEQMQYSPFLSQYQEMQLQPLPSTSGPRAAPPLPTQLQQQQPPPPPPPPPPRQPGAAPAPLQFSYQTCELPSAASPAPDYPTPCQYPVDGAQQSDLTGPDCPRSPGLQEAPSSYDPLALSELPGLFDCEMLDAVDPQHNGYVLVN
parameter: log10 IC50 (log10 of the value in nM)

| molecule | parameter | experimental value |
| --- | --- | --- |
| Cn1ncc(OC[C@H]2C[C@@H](N)C2)c1-c1ccn2nc(NC(=O)C3CC3)cc2c1 | log10 IC50 | 2.03 |
| [2H]C([2H])([2H])C([2H])([2H])N1CC[C@@H]1COc1cnn(C)c1-c1ccn2nc(Nc3cc(C)nc(C)n3)cc2c1 | log10 IC50 | 0.41 |
| C[C@@H]1NC[C@H]1OCc1cnn(C)c1-c1ccn2nc(NC(=O)C3CC3)cc2c1 | log10 IC50 | 1.37 |
| CN1CC[C@H](Oc2cnn(C)c2-c2ccn3nc(NC(=O)C4CC4)cc3c2)C1 | log10 IC50 | 1.63 |
| CNC1(COc2cnn(C)c2-c2ccn3nc(NC(=O)C4CC4)cc3c2)CC1 | log10 IC50 | 2.00 |
| Cc1nccc(Nc2cc3cc(-c4c(O[C@H]5CCN(C)C5)cnn4C)ccn3n2)n1 | log10 IC50 | 2.01 |
| Cc1onc(O[C@@H]2CCNC[C@@H]2F)c1-c1ccn2nc(NC(=O)C3CC3)cc2c1 (single isomer, unassigned) [Example 215] | log10 IC50 | 1.44 |
| Cc1cc(Nc2cc3cc(-c4c(OC[C@H]5CCCN5C)cnn4C)ccn3n2)ncn1 | log10 IC50 | 1.27 |
| Cn1ncc(OC[C@@]23CN[C@@H](CO2)C3)c1-c1ccn2nc(NC(=O)C3CC3)cc2c1 | log10 IC50 | 0.04 |
| Cn1ncc(O[C@@H]2CNC[C@@H]2F)c1-c1ccn2nc(NC(=O)C3CC3)cc2c1 | log10 IC50 | 0.92 |
| Cc1onc(OCC2(C#N)CNC2)c1-c1ccn2nc(NC(=O)C3CC3)cc2c1 | log10 IC50 | 1.11 |
